- Test system: Plasma
- ASSAY_SUMMARY: Apparent plasma concentration in mouse infected with Plasmodium berghei ANKA at 3 mg/kg, po measured after 24 hrs
- Assay type: ADME, organism-based
- Parameters: dose 3 mg/kg, route oral
- MEASUREMENT_SETUP: in vivo
MEASURE: Cave (µM)

Lab note: `CS(=O)(=O)c1ccc(-c2cnc(N)c(-c3ccc(C(F)(F)F)cc3)n2)cc1` gave Cave of 0.3

Lab note: `Nc1ncc(-c2ccc(C(=O)N3CCOCC3)cc2)nc1-c1ccc(C(F)(F)F)cc1` gave Cave of 0.01

Lab note: `CCS(=O)(=O)c1ccc(-c2cnc(N)c(-c3ccc(C(F)(F)F)nc3)n2)cc1` gave Cave of 0.01

I = CS(=O)(=O)c1ccc(-c2cnc(N)c(-c3ccc(C(F)(F)F)nc3)n2)cc1
II = CNS(=O)(=O)c1ccc(-c2cnc(N)c(-c3ccc(C(F)(F)F)nc3)n2)cc1
Input: Cave comparison. Which is larger, I or II ? // caller expects the label of the chosen entry
Output: I

====

- ASSAY_SUMMARY: Half life in human liver microsomes by LC-MS/MS analysis
- Type: ADME
- MEASUREMENT_SETUP: liver microsomes
MEASURE: half-life (h)

Below are worked cases with known answers.
Lab note: `COc1ccc(-c2cc(-c3ccc(S(C)(=O)=O)cc3)cnc2I)cn1` gave half-life of 3.97

Lab note: `CCS(=O)(=O)c1ccc(-c2cnc(N)c(-c3ccc(C(F)(F)F)nc3)n2)cc1` gave half-life of 3.62

Lab note: `CS(=O)(=O)c1ccc(-c2cnc(N)c(-c3ccc(C(F)(F)F)cc3)n2)cc1` gave half-life of 2.58

Lab note: `CCOc1ncc(-c2ccc(S(C)(=O)=O)cc2)cc1-c1ccc(OC)nc1` gave half-life of 2.03

Lab note: `COc1ccc(-c2nc(-c3ccc(S(C)(=O)=O)cc3)cnc2N)cn1` gave half-life of 2.57

I = CNS(=O)(=O)c1ccc(-c2cnc(N)c(-c3ccc(C(F)(F)F)nc3)n2)cc1
II = COc1ccc(-c2cc(-c3ccc(S(C)(=O)=O)cc3)cnc2N)cn1
Input: half-life comparison. Which is larger, I or II ? // caller expects the label of the chosen entry
Output: II

====

- ASSAY_SUMMARY: in vitro
- MEASUREMENT_SETUP: human, liver microsomes
MEASURE: microsomal CLint (µL/min/mg)

Below are worked cases with known answers.
Lab note: `CCOc1ncc(-c2ccc(S(C)(=O)=O)cc2)cc1-c1ccc(OC)nc1` gave microsomal CLint of 14.2

Lab note: `COc1ccc(-c2nc(-c3ccc(S(C)(=O)=O)cc3)cnc2N)cn1` gave microsomal CLint of 11

Lab note: `CS(=O)(=O)c1ccc(-c2cnc(N)c(-c3ccc(C(F)(F)F)cc3)n2)cc1` gave microsomal CLint of 11

Lab note: `COc1ccc(-c2cc(-c3ccc(S(C)(=O)=O)cc3)cnc2I)cn1` gave microsomal CLint of 7.3

Lab note: `CCS(=O)(=O)c1ccc(-c2cnc(N)c(-c3ccc(C(F)(F)F)nc3)n2)cc1` gave microsomal CLint of 8

P = COc1ccc(-c2cc(-c3ccc(S(C)(=O)=O)cc3)cnc2N)cn1
Q = CNS(=O)(=O)c1ccc(-c2cnc(N)c(-c3ccc(C(F)(F)F)nc3)n2)cc1
Input: Select the item whose microsomal CLint value is smaller, choosing between P and Q . // caller expects the label of the chosen entry
Output: P

====

- ASSAY_SUMMARY: physchem
- MEASUREMENT_SETUP: octanol/water, pH 7.4
MEASURE: logD

Lab note: `COc1ccc(-c2cc(-c3ccc(S(C)(=O)=O)cc3)nnc2N)cn1` gave logD of 1.7

Lab note: `CS(=O)(=O)c1ccc(-c2cnc(N)c(-c3ccc(C(F)(F)F)cc3)n2)cc1` gave logD of 2.8

Lab note: `COc1ccc(-c2cc(-c3ccc(S(C)(=O)=O)cc3)ccc2N)cn1` gave logD of 2.8

Lab note: `COc1ccc(-c2cncc(-c3ccc(S(C)(=O)=O)cc3)c2)cn1` gave logD of 2.5

Lab note: `COc1ccc(-c2nc(-c3ccc(S(C)(=O)=O)cc3)cnc2N)cn1` gave logD of 2.3

Lab note: `COc1ccc(-c2csc3c(-c4ccc(S(C)(=O)=O)cc4)cnc(N)c23)cn1` gave logD of 2.9

Lab note: `CS(=O)(=O)c1ccc(-c2cnc(N)c(-c3ccc(C(F)(F)F)nc3)n2)cc1` gave logD of 2.8

a = Nc1ncc(-c2ccc(C(=O)N3CCOCC3)cc2)nc1-c1ccc(C(F)(F)F)cc1
b = COc1ccc(-c2cc(-c3ccc(S(C)(=O)=O)cc3)cnc2NCCCCN)cn1
Input: logD comparison. Which is larger, a or b ? // caller expects the label of the chosen entry
Output: a
(a: 3.2, b: 1.8)

Values from ChEMBL document CHEMBL3124877
